Reference source for all entries: the supplement of paper PMC11246515

# Experiment description: total protein half-life in vivo (active degradation + dilution); higher = more stable protein
# Recorded conditions: E. coli NCM3722 delta-clpP delta-lon delta-hslV; growth: N-lim chemostat; doubling time 6 h
sequences and their reported total protein half-life in vivo
Kindly provide the numeric value in h only, without the unit symbol.

Input sequence: MQSWYLLYCKRGQLQRAQEHLERQAVNCLAPMITLEKIVRGKRTAVSEPLFPNYLFVEFDPEVIHTTTINATRGVSHFVRFGASPAIVPSAVIHQLSVYKPKDIVDPATPYPGDKVIITEGAFEGFQAIFTEPDGEARSMLLLNLINKEIKHSVKNTEFRKL [P0AFW0]
total protein half-life in vivo / h: 4.25

Please examine the following record next.
Request: Could you please provide reported total protein half-life in vivo for MQYNPLGKTDLRVSRLCLGCMTFGEPDRGNHAWTLPEESSRPIIKRALEGGINFFDTANSYSDGSSEEIVGRALRDFARREDVVVATKVFHRVGDLPEGLSRAQILRSIDDSLRRLGMDYVDILQIHRWDYNTPIEETLEALNDVVKAGKARYIGASSMHASQFAQALELQKQHGWAQFVSMQDHYNLIYREEEREMLPLCYQEGVAVIPWSPLARGRLTRPWGETTARLVSDEVGKNLYKESDENDAQIAERLTGVSEELGATRAQVALAWLLSKPGIAAPIIGTSREEQLDELLNAVDITLKPEQIAELETPYKPHPVVGFK ? Thanks!
Result: 4.53

----------
# Experiment description: total protein half-life in vivo (active degradation + dilution); higher = more stable protein
# Recorded conditions: wild type E. coli NCM3722; growth: N-lim chemostat; doubling time 12 h
Recorded endpoint: total protein half-life in vivo

Input sequence: MDTELLKTFLEVSRTRHFGRAAESLYLTQSAVSFRIRQLENQLGVNLFTRHRNNIRLTAAGEKLLPYAETLMSTWQAARKEVAHTSRHNEFSIGASASLWECMLNQWLGRLYQNQDAHTGLQFEARIAQRQSLVKQLHERQLDLLITTEAPKMDEFSSQLLGYFTLALYTSAPSKLKGDLNYLRLEWGPDFQQHEAGLIGADEVPILTTSSAELAQQQIAMLNGCTWLPVSWARKKGGLHTVVDSTTLSRPLYAIWLQNSDKNALIRDLLKINVLDEVY [P0A8R9]
total protein half-life in vivo: 7.65 h

Please examine the following record next.
Request: Could you please provide reported total protein half-life in vivo for MNTISSLETTDLPAAYHIEQRAHAFPWSEKTFASNQGERYLNFQLTQNGKMAAFAITQVVLDEATLFNIAVDPDYQRQGLGRALLEHLIDELEKRGVATLWLEVRASNAAAIALYESLGFNEATIRRNYYPTTDGREDAIIMALPISM [P0A944] ? Thanks!
Result: 6.18 h

----------
# Experiment description: total protein half-life in vivo (active degradation + dilution); higher = more stable protein
# Recorded conditions: wild type E. coli NCM3722; growth: P-lim chemostat; doubling time 12 h
Recorded endpoint: total protein half-life in vivo

Sample records with total protein half-life in vivo:
Input sequence: MSIRIIPQDELGSSEKRTADMIPPLLFPRLKNLYNRRAERLRELAENNPLGDYLRFAALIAHAQEVVLYDHPLEMDLTARIKEASAQGKPPLDIHVLPRDKHWQKLLMALIAELKPEMSGPALAVIENLEKASTQELEDMASALFASDFSSVSSDKAPFIWAALSLYWAQMANLIPGKARAEYGEQRQYCPVCGSMPVSSMVQIGTTQGLRYLHCNLCETEWHVVRVKCSNCEQSGKLHYWSLDDEQAAIKAESCDDCDTYLKILYQEKDPKIEAVADDLASLVLDARMEQEGYARSSINPFLFPGEGE
total protein half-life in vivo: 7.84 h
--
Input sequence: MKLFYKPGACSLASHITLRESGKDFTLVSVDLMKKRLENGDDYFAVNPKGQVPALLLDDGTLLTEGVAIMQYLADSVPDRQLLAPVNSISRYKTIEWLNYIATELHKGFTPLFRPDTPEEYKPTVRAQLEKKLQYVNEALKDEHWICGQRFTIADAYLFTVLRWAYAVKLNLEGLEHIAAFMQRMAERPEVQDALSAEGLK [P0A9D2]
total protein half-life in vivo: 10.6 h

Request: Could you please provide reported total protein half-life in vivo for MQNITQSWFVQGMIKATTDAWLKGWDERNGGNLTLRLDDADIAPYHDNFHQQPRYIPLSQPMPLLANTPFIVTGSGKFFRNVQLDPAANLGIVKVDSDGAGYHILWGLTNEAVPTSELPAHFLSHCERIKATNGKDRVIMHCHATNLIALTYVLENDTAVFTRQLWEGSTECLVVFPDGVGILPWMVPGTDEIGQATAQEMQKHSLVLWPFHGVFGSGPTLDETFGLIDTAEKSAQVLVKVYSMGGMKQTISREELIALGKRFGVTPLASALAL ? Thanks!
Result: 10.1 h

----------
# Experiment description: total protein half-life in vivo (active degradation + dilution); higher = more stable protein
# Recorded conditions: E. coli NCM3722 delta-hslV; growth: N-lim chemostat; doubling time 6 h
sequences and their reported total protein half-life in vivo
Kindly provide the numeric value in h only, without the unit symbol.

Input sequence: MSVIKMTDLDLAGKRVFIRADLNVPVKDGKVTSDARIRASLPTIELALKQGAKVMVTSHLGRPTEGEYNEEFSLLPVVNYLKDKLSNPVRLVKDYLDGVDVAEGELVVLENVRFNKGEKKDDETLSKKYAALCDVFVMDAFGTAHRAQASTHGIGKFADVACAGPLLAAELDALGKALKEPARPMVAIVGGSKVSTKLTVLDSLSKIADQLIVGGGIANTFIAAQGHDVGKSLYEADLVDEAKRLLTTCNIPVPSDVRVATEFSETAPATLKSVNDVKADEQILDIGDASAQELAEILKNAKTILWNGPVGVFEFPNFRKGTEIVANAIADSEAFSIAGGGDTLAAIDLFGIADKISYISTGGGAFLEFVEGKVLPAVAMLEERAKK [P0A799]
Units symbol: h
total protein half-life in vivo: 4.91

Request: Could you please provide reported total protein half-life in vivo for MSVIETATVPLAQQQADALLNVKDLRVTFSTPDGDVTAVNDLNFSLRAGETLGIVGESGSGKSQTAFALMGLLAANGRIGGSATFNGREILNLPEHELNKLRAEQISMIFQDPMTSLNPYMRVGEQLMEVLMLHKNMSKAEAFEESVRMLDAVKMPEARKRMKMYPHEFSGGMRQRVMIAMALLCRPKLLIADEPTTALDVTVQAQIMTLLNELKREFNTAIIMITHDLVVVAGICDKVLVMYAGRTMEYGNARDVFYQPVHPYSIGLLNAVPRLDAEGETMLTIPGNPPNLLRLPKGCPFQPRCPHAMEICSSAPPLEEFTPGRLRACFKPVEELL ? Thanks!
Result: 5.53

----------
# Experiment description: total protein half-life in vivo (active degradation + dilution); higher = more stable protein
# Recorded conditions: wild type E. coli NCM3722; growth: C-lim chemostat; doubling time 12 h
Recorded endpoint: total protein half-life in vivo

Sample records with total protein half-life in vivo:
Input sequence: MTTQTVSGRRYFTKAWLMEQKSLIALLVLIAIVSTLSPNFFTINNLFNILQQTSVNAIMAVGMTLVILTSGIDLSVGSLLALTGAVAASIVGIEVNALVAVAAALALGAAIGAVTGVIVAKGRVQAFIATLVMMLLLRGVTMVYTNGSPVNTGFTENADLFGWFGIGRPLGVPTPVWIMGIVFLAAWYMLHHTRLGRYIYALGGNEAATRLSGINVNKIKIIVYSLCGLLASLAGIIEVARLSSAQPTAGTGYELDAIAAVVLGGTSLAGGKGRIVGTLIGALILGFLNNGLNLLGVSSYYQMIVKAVVILLAVLVDNKKQ [P0AGI1]
Readout value: 12.5 h

Input sequence: MKALSKLKAEEGIWMTDVPVPELGHNDLLIKIRKTAICGTDVHIYNWDEWSQKTIPVPMVVGHEYVGEVVGIGQEVKGFKIGDRVSGEGHITCGHCRNCRGGRTHLCRNTIGVGVNRPGCFAEYLVIPAFNAFKIPDNISDDLAAIFDPFGNAVHTALSFDLVGEDVLVSGAGPIGIMAAAVAKHVGARNVVITDVNEYRLELARKMGITRAVNVAKENLNDVMAELGMTEGFDVGLEMSGAPPAFRTMLDTMNHGGRIAMLGIPPSDMSIDWTKVIFKGLFIKGIYGREMFETWYKMAALIQSGLDLSPIITHRFSIDDFQKGFDAMRSGQSGKVILSWD
Readout value: 9.68 h

Request: Could you please provide reported total protein half-life in vivo for MKSLSYKRIYKSQEYLATLGTIEYRSLFGSYSLTVDDTVFAMVSDGELYLRACEQSAQYCVKHPPVWLTYKKCGRSVTLNYYRVDESLWRNQLKLVRLSKYSLDAALKEKSTRNTRERLKDLPNMSFHLEAILGEVGIKDVRALRILGAKMCWLRLRQQNSLVTEKILFMLEGAIIGIHEAALPVARRQELAEWADSLTPKQEFPAELE ? Thanks!
Result: 9.22 h
